Values compiled from PubChem BioAssay.

- Assayed target: Pro-neuregulin-1, membrane-bound isoform (Homo sapiens)
- Experimental details: small molecules binding neuregulin-1 protein – biochemical, small-molecule microarray, fluorescence 635/667, psychiatric disease protein project, primary screen (AID 1075);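 note: score combines 667 nm spot fluorescence with signal to noise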
- Condition: NRG1 binding, 635 nm fluorescence, higher = more signal
Label y when composite z-score is at or above 1; anything below gets n.

Molecule	Assayed target	Class
CN1C(=O)C2C=CC(C(O)C(c3ccccc3)c3ccccc3)N(Nc3ccccc3)C2C1=O (configuration not stated)	Pro-neuregulin-1, membrane-bound isoform (Homo sapiens)	y
COc1ccc([Si](C)(C)[C@H]2[C@H](CC(=O)N3Cc4ccccc4C[C@H]3CO)O[C@@]3(C(=O)N(Cc4cccc(I)c4)c4ccccc43)[C@@H]2C)cc1	Pro-neuregulin-1, membrane-bound isoform (Homo sapiens)	n
O=C(CS)NCCCCCNC(=O)[C@H]1C[C@H]2C(=O)N[C@@H](Cc3ccccc3)C(=O)N2[C@H]1c1cccc(OCCO)c1	Pro-neuregulin-1, membrane-bound isoform (Homo sapiens)	n
COCCOC(=O)N1C(=O)[C@@]2(c3cc(C#CCC(C(=O)OC)C(=O)OC)ccc31)[C@H](c1ccc(OCCO)cc1)N1[C@H](c3ccccc3)[C@H](c3ccccc3)OC(=O)[C@H]1[C@@H]2C(=O)NC[C@H](O)c1ccccc1	Pro-neuregulin-1, membrane-bound isoform (Homo sapiens)	n
CC1CC/C=C\[C@H]2OC34C=CCN(CCN5CCOCC5)C(=O)[C@H]3N(CCCCCO)C(=O)[C@@H]4C2C(=O)O1 (some centres not stated)	Pro-neuregulin-1, membrane-bound isoform (Homo sapiens)	n
COc1ccc(C(O)C2C=CC3C(=O)N(c4ccccc4)C(=O)C3N2Nc2ccccc2)c2ccccc12 (configuration not stated)	Pro-neuregulin-1, membrane-bound isoform (Homo sapiens)	n
CCOC(=O)C[C@H]1[C@H](OC(=O)c2cc3ccccc3oc2=O)[C@@H](NC(=O)c2ccc3ccccc3c2)c2cc(OCCCO)ccc2N1C(=O)c1ccccc1	Pro-neuregulin-1, membrane-bound isoform (Homo sapiens)	n
CCCCC(=C=CC[C@H](O)c1ccccc1OCCO)C[C@H](O)c1cc(Cl)cc(Cl)c1O	Pro-neuregulin-1, membrane-bound isoform (Homo sapiens)	n
O=P(NCC1(CC2(c3ccccc3)CO2)CC1)(c1ccccc1)c1ccccc1 (configuration not stated)	Pro-neuregulin-1, membrane-bound isoform (Homo sapiens)	y
Cc1ccc(C(C)CC(O)C2C=CC3C(=O)NC(=O)C3N2Nc2ccccn2)o1 (configuration not stated)	Pro-neuregulin-1, membrane-bound isoform (Homo sapiens)	n
C=CC[C@@]1(C(=O)NCc2ccccc2)N=C(c2ccc(OCCCO)cc2)O[C@@H]1c1ccccc1CN=[N+]=[N-]	Pro-neuregulin-1, membrane-bound isoform (Homo sapiens)	y
COCCOC(=O)N1C(=O)[C@@]2(c3cc(C#CC4(O)CCCCCC4)ccc31)[C@H](c1ccc(O)cc1)N1[C@H](c3ccccc3)[C@H](c3ccccc3)OC(=O)[C@H]1[C@@H]2C(=O)N1CCc2cc(OC)c(OC)cc2C1	Pro-neuregulin-1, membrane-bound isoform (Homo sapiens)	n
[N-]=[N+]=NCc1ccccc1C[C@@]1(C(=O)NCc2ccccc2)N=C(c2ccc(OCCCO)cc2)O[C@@H]1c1ccccc1CN=[N+]=[N-]	Pro-neuregulin-1, membrane-bound isoform (Homo sapiens)	n
O=S(=O)(NCCCO)c1ccc(Br)cc1	Pro-neuregulin-1, membrane-bound isoform (Homo sapiens)	y
Cc1ccccc1/C=C/C=O	Pro-neuregulin-1, membrane-bound isoform (Homo sapiens)	n
CCN(CC)c1ccc(N2CC=CC34O[C@@H]5C=CCCOC(=O)C5[C@H]3C(=O)N(CCCO)[C@@H]4C2=O)cc1 (some centres not stated)	Pro-neuregulin-1, membrane-bound isoform (Homo sapiens)	n
[N-]=[N+]=NCc1ccccc1C[C@]1(C(=O)NCCN2CCOCC2)N=C(c2ccc(OCCCO)cc2)O[C@H]1c1ccccc1CN=[N+]=[N-]	Pro-neuregulin-1, membrane-bound isoform (Homo sapiens)	y
[N-]=[N+]=NCc1ccccc1[C@H]1OC(c2ccc(OCCCO)cc2)=N[C@@]1(Cc1ccccc1)C(=O)O	Pro-neuregulin-1, membrane-bound isoform (Homo sapiens)	y
Cc1cccc(/C=C/C=O)c1	Pro-neuregulin-1, membrane-bound isoform (Homo sapiens)	n
CC(C)OC(=O)C1=CCC(c2cccc(Cl)c2)O1 (configuration not stated)	Pro-neuregulin-1, membrane-bound isoform (Homo sapiens)	n
O=C1C2C=CC(C(O)c3cccc4ccccc34)N(n3cnnc3)C2C(=O)N1Cc1ccccc1 (configuration not stated)	Pro-neuregulin-1, membrane-bound isoform (Homo sapiens)	n
COC(=O)[C@@]1(Cc2ccc(OC)cc2)[C@H]2c3cc(C(=O)N4CCCC4)n(C[C@H](O)CO)c3C[C@H]2CN1C(=O)c1ccccc1	Pro-neuregulin-1, membrane-bound isoform (Homo sapiens)	y
C=C(COC)/C(=C/C[C@H](OC(C)=O)c1ccccc1OCCO)c1cnc2ccccc2c1	Pro-neuregulin-1, membrane-bound isoform (Homo sapiens)	y
O=C1C2C=CC(C(O)CCc3ccccc3)N(Nc3ccccc3)C2C(=O)N1c1ccccc1 (configuration not stated)	Pro-neuregulin-1, membrane-bound isoform (Homo sapiens)	y
CN(C)CCCC[C@@H]1NC(=O)[C@@H]2C[C@H](C(=O)NCCCCCCN)[C@H](c3ccc(O)cc3)N2C1=O	Pro-neuregulin-1, membrane-bound isoform (Homo sapiens)	y
Cc1ccc(F)cc1S(=O)(=O)N[C@@H]1CCN(Cc2ccc(C(F)(F)F)cc2)C1	Pro-neuregulin-1, membrane-bound isoform (Homo sapiens)	n
CCCC[C@H]1OB(O)C[C@H]2C1=C(C)Cn1c(=O)n(-c3ccccc3)c(=O)n12	Pro-neuregulin-1, membrane-bound isoform (Homo sapiens)	n
Cc1ccc(N2C(=O)c3ccccc3[C@](C)(C(=O)NCCN3CCOCC3)[C@@H]2c2ccc(CO)cc2)nc1	Pro-neuregulin-1, membrane-bound isoform (Homo sapiens)	n
O=C1O[C@@H](c2ccccc2)[C@@H](c2ccccc2)N2[C@@H](c3ccc(O)cc3)[C@]3(C(=O)Nc4ccccc43)[C@@H](C(=O)NC[C@H](O)c3ccccc3)[C@H]12	Pro-neuregulin-1, membrane-bound isoform (Homo sapiens)	y
